List of TGI values.
Test system: SK-OV-3 ovarian
Assay: NCI tumour cell line growth inhibition, 48 h

{"columns": ["COMPOUND", "TGI"],
 "data": [
  ["COc1ccc2c(C3(O)CCNCC3)c[nH]c2c1", "> 100 µM"],
  ["Brc1ccc2c(c1)C1=C(CO2)Cc2ccccc2O1", "46.7 µM"],
  ["CCN(CC)C(=O)CCCCCCCCC1CO1 (configuration not stated)", "> 100 µM"],
  ["COc1ccc(N=C/C=C/Nc2ccc(OC)cc2)cc1", "34.3 µM"],
  ["COC(=O)C12C3C4C1C1C2C3C41I (configuration not stated)", "> 100 µM"],
  ["COC(=O)c1c(O)ccc2c1c1c(n2C)C(=O)c2ccccc2C1=O", "21.5 µM"],
  ["O=C1NC(=O)C(c2ccccc2Cl)=C1Nc1cccc(O)c1", "> 25 µM"],
  ["CCOC(=O)c1c2ccc(/C=C/C(=O)OC)ccc-2c(C(=O)OCC)c1N", "> 100 µM"],
  ["OC1CCC(Oc2cccc3cnc(Nc4ccc5nc[nH]c5c4)nc23)CC1 (configuration not stated)", "47.8 µM"],
  ["Nc1nc(N)c2ncn(CC(CO)CC(c3ccccc3)P(=O)(O)O)c2n1 (configuration not stated)", "> 100 µM"],
  ["CC(SC1=CC(=O)c2c(O)ccc(O)c2C1=O)C(=O)O (configuration not stated)", "> 100 µM"],
  ["COc1ccc(N=Cc2ccc(N(CCC#N)CCC#N)cc2)cc1", "> 100 µM"]
]}
